# Test system: MIA PaCa-2 cells
# assay procedure: Growth inhibition activity on KRAS-G12C mutant cell line (CellTiter-Glo 3D)
# Assay type: cell-based, human
# conditions: Homo sapiens, MIA PaCa-2, 72 h, MIA PaCa-2, 3-day culture with compound; Table 3-1
Can you tell me IC50 for the items I'm about to list?
One number for each entry, in nM.

Provide each entry's IC50 from the list below.
1. COCc1nc2c3c(c(C)cc2n1C)-c1cccn2c(C(=O)c4cc(F)c(NC(=O)/C=C/CN[C@H]5CCOC5)c(F)c4)cc(c12)CCN3C (single isomer, unassigned)
2. COCCn1c(COC)nc2c3c(c(OC)cc21)-c1cccn2c(C(=O)c4cc(F)c(NC(=O)/C=C/CN[C@H]5CCOC5)c(F)c4)cc(c12)CCN3C (single isomer, unassigned)
3. Cn1cnc2c3c(c(C(F)(F)F)cc21)-c1cccn2c(C(=O)c4cc(F)c(NC(=O)/C=C/CN5CCCC[C@H]5CO)c(F)c4)cc(c12)CCO3
4. COCCn1c(C)nc2c3c(c(OC)cc21)-c1cccn2c(C(=O)c4cc(F)c(NC(=O)/C=C/CNC5(C)CC5)c(F)c4)cc(c12)CCN3C (single isomer, unassigned)

1: 21.9; 2: 28.5; 3: 1940; 4: 4.62

Return reported IC50; argument: Cc1nc2c3c(c(C(F)(F)F)cc2n1C)-c1cccn2c(C(=O)c4cc(F)c(NC(=O)/C=C/CNC5(C)CCOC5)c(F)c4)cc(c12)CCO3 (single isomer, unassigned) 1.44

----------
# system name: interaction between GMPPNP-bound recombinant K-Ras4B G12C mutant protein and cRAF RAS-binding domain (cRAF-RBD) (Homo sapiens, UniProt P01116, G12C)
# Construct: His-tag (N)
# Sequence (P01116 with tags, fused parts or gaps isoform P01116-2 G12C): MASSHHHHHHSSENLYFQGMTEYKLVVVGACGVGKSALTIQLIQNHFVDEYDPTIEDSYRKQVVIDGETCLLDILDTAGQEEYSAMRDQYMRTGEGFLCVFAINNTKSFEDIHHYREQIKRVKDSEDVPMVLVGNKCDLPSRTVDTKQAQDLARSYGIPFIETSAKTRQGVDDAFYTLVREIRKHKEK
# assay procedure: Inhibitory activity on interaction between KRAS G12C and cRAF (Alpha technology)
# conditions: IC50, GMPPNP-bound KRAS G12C incubated with compound 25° C. 1 hour; Table 2-1
Can you tell me pIC50 for the items I'm about to list?
Answers are plain numbers, as −log10 of the molar value.

[
  {
    "compound": "CN1CCn2cc(C(=O)c3cc(F)c(NC(=O)/C=C/CNC(C)(C)CF)c(F)c3)c3cccc(c32)-c2c(C(F)(F)F)cc3c(ncn3C)c21",
    "pIC50": 7.68
  },
  {
    "compound": "Cc1cc2c(nc(C)n2C)c2c1-c1cccc3c(C(=O)c4cc(F)c(NC(=O)/C=C/CNC56CCC(CC5)OC6)c(F)c4)cn(c13)CCN2C [Example 73]",
    "pIC50": 7.33
  },
  {
    "compound": "Cc1nc2c3c(c(C(F)(F)F)cc2n1C)-c1cccc2c(C(=O)c4cc(F)c(NC(=O)/C=C/CNC(C)(C)CF)c(F)c4)cn(c12)CCN3C",
    "pIC50": 7.60
  }
]

Provide each entry's pIC50 from the list below.
1. Cc1cc2c(nc(C)n2C)c2c1-c1cccc3c(C(=O)c4cc(F)c(NC(=O)/C=C/CNC5CCOC5(C)C)c(F)c4)cn(c13)CCN2C (stereo not drawn)
2. CN1CCn2cc(C(=O)c3cc(F)c(NC(=O)/C=C/CNC4(C)COC4)c(F)c3)c3cccc(c32)-c2c(C(F)(F)F)cc3c(ncn3C)c21
3. Cc1cc2c(nc(C)n2C)c2c1-c1cccc3c(C(=O)c4cc(F)c(NC(=O)/C=C/CN5[C@@H]6CC[C@H]5[C@H](O)C6)c(F)c4)cn(c13)CCN2C (racemic)

7.38
7.12
7.65

----------
# System: MIA PaCa-2 cells
# assay procedure: Growth inhibition activity on KRAS-G12C mutant cell line (CellTiter-Glo 3D)
# Assay type: cell-based, human
# conditions: Homo sapiens, MIA PaCa-2, 72 h, MIA PaCa-2, 3-day culture with compound; Table 3-1
# Description: MIA PaCa-2 cells (given by Sumitomo Dainippon Pharma Co., Ltd.), which are a KRAS-G12C mutant human pancreas cancer cell line, were suspended in a 10% fetal bovine serum-containing RPMI1640 medium (manufactured by Fujifilm Wako Pure Chemical Corporation). […] The cell count after 3-day culture in the presence of the test compound was measured using CellTiter-Glo 3D Reagent (manufactured by Promega Corporation). […] 30 minutes after mixing, luminescence was measured by a plate reader. […]
Labelling field: enter criterion met if recorded IC50 is less than 20 nM. Enter criterion not met if it equals or exceeds that cut-off.

Before answering, review these 4 worked examples.
[
  {
    "compound": "Cn1cnc2c3c(c(C(F)(F)F)cc21)-c1cccn2c(C(=O)c4cc(F)c(NC(=O)/C=C/CN5CC6CC5CCO6)c(F)c4)cc(c12)CCO3 (stereo not drawn) [Example 229]",
    "assigned category": "criterion met"
  },
  {
    "compound": "Cc1cc2c(nc(C)n2C)c2c1-c1cccc3c(C(=O)c4cc(F)c(NC(=O)/C=C/CN5CCC[C@H]5C(C)(C)O)c(F)c4)cn(c13)CCN2C [Example 122]",
    "assigned category": "criterion not met"
  },
  {
    "compound": "Cc1cc2c(ncn2C)c2c1-c1cccn3c(C(=O)c4cc(F)c(NC(=O)/C=C/CNC5(C)CC5)c(F)c4)cc(c13)CCN2C [Example 115]",
    "assigned category": "criterion not met"
  },
  {
    "compound": "COc1cc2c(nc(C)n2C)c2c1-c1cccn3c(C(=O)c4cc(F)c(NC(=O)/C=C/CNC5(C)CCCC5)c(F)c4)cc(c13)CCN2C [Example 245]",
    "assigned category": "criterion not met"
  }
]

Pending compound:
# TODO verify IC50 < 20 nM strictly for this compound: CCN(CC)[C@H]1CC[C@H](NC/C=C/C(=O)Nc2c(F)cc(C(=O)c3cn4c5c(cccc35)-c3c(C(F)(F)F)cc5c(nc(C)n5C)c3N(C)CC4)cc2F)CC1 [Example 102] criterion met

----------
Can you tell me IC50 for the items I'm about to list?
# Tested on: MIA PaCa-2 cells
# assay procedure: Growth inhibition activity on KRAS-G12C mutant cell line (CellTiter-Glo 3D)
# Format: cell-based, human
# conditions: MIA PaCa-2, 3-day culture with compound; Table 3
Answers are plain numbers, in µM.

Recorded IC50, per entry:
[
  {
    "compound": "CC(C)(C)NC/C=C/C(=O)Nc1c(F)cc(C(=O)c2cn3c4c(cccc24)-c2c(Cl)cccc2OCCC3)cc1F (single isomer, unassigned) [Example 2-1]",
    "IC50 (µM)": 3.1
  },
  {
    "compound": "CO[C@H]1CC[C@H](NC/C=C/C(=O)Nc2c(F)cc(C(=O)c3cn4c5c(cccc35)-c3c(cccc3C(F)(F)F)OCC4)cc2F)CC1 (single isomer, unassigned) [Example 11-2]",
    "IC50 (µM)": 0.091
  }
]

# ---- query compound ----
Return reported IC50; argument: Cc1nc2c3c(c(C(F)(F)F)cc2n1C)-c1cccn2c(C(=O)c4cc(F)c(NC(=O)/C=C/CN(C)C)c(F)c4)cc(c12)CCO3 (single isomer, unassigned) [Example 38-2] 0.019

----------
Can you tell me pIC50 for the items I'm about to list?
# system name: biotinylated KRAS G12C protein (GMP-PNP loaded) and GST-tagged Ras binding domain of c-RAF (Homo sapiens, UniProt P01116, C118S/C51S/C80L/G12C)
# Sequence (P01116 with tags, fused parts or gaps isoform P01116-2 G12C/C51S/C80L/C118S): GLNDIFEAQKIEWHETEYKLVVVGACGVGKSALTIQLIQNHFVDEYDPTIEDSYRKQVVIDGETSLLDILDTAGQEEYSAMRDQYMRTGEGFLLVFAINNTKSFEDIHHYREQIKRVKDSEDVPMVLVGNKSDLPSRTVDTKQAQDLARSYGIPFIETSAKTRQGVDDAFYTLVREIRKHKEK
# assay procedure: RAS:RAF-RBD binding assay (TR-FRET)
# conditions: 30-minute incubation of compound with KRAS G12C before RAF-RBD; Table 4; read-out: IC50
Answers are plain numbers, as −log10 of the molar value.

[
  {
    "compound": "Cc1nc2c3c(c(C(F)(F)F)cc2n1C)-c1cccn2c(C(=O)c4cc(F)c(NC(=O)/C=C/CN5CC6C(CO)C6C5)c(F)c4)cc(c12)CCO3 (single isomer, unassigned)",
    "pIC50": 7.35
  },
  {
    "compound": "Cc1nc2c3c(c(C(F)(F)F)cc2n1C)-c1cccn2c(C(=O)c4cc(F)c(NC(=O)/C(F)=C/CN[C@@H]5CCOC5)c(F)c4)cc(c12)CCO3 (atropisomer, axis not shown)",
    "pIC50": 7.59
  }
]

Return reported pIC50; argument: Cc1nc2c3c(c(C(F)(F)F)cc2n1C)-c1cccn2c(C(=O)c4cc(F)c(NC(=O)C=CCN5CC6CC5CO6)c(F)c4)cc(c12)CCO3 (stereo not drawn) 8.01

----------
# System: MIA PaCa-2 cells
# assay procedure: Growth inhibition activity on KRAS-G12C mutant cell line (CellTiter-Glo 3D)
# Format: cell-based, human
# conditions: Homo sapiens, MIA PaCa-2, 72 h, MIA PaCa-2, 3-day culture with compound; Table 3-1
reported endpoint: pIC50
Answers are plain numbers, as −log10 of the molar value.

[
  {
    "molecule": "Cn1cnc2c3c(c(C(F)(F)F)cc21)-c1cccn2c(C(=O)c4cc(F)c(NC(=O)/C=C/CN5CC[C@H]6CC[C@@H](O)[C@H]65)c(F)c4)cc(c12)CCO3 (racemic)",
    "reported endpoint": "pIC50",
    "reported result": 7.86
  },
  {
    "molecule": "Cc1cc2c(nc(C)n2C)c2c1-c1cccc3c(C(=O)c4cc(F)c(NC(=O)/C=C/CN5CC[C@H]5C(C)(C)O)c(F)c4)cn(c13)CCN2C",
    "reported endpoint": "pIC50",
    "reported result": 7.24
  },
  {
    "molecule": "Cc1c2cc(C(F)(F)F)c3c(c2nn1C)N(C)CCc1cc(C(=O)c2cc(F)c(NC(=O)/C=C/CN[C@H]4CCOC4)c(F)c2)n2cccc-3c12 (single isomer, unassigned)",
    "reported endpoint": "pIC50",
    "reported result": 8.10
  },
  {
    "molecule": "Cc1nc2c3c(c(C(F)(F)F)cc2n1C)-c1cccn2c(C(=O)c4cc(F)c(NC(=O)/C=C/CN[C@@H]5COC[C@H]5O)c(F)c4)cc(c12)CCN3C",
    "reported endpoint": "pIC50",
    "reported result": 7.83
  },
  {
    "molecule": "Cn1cnc2c3c(c(C(F)(F)F)cc21)-c1cccn2c(C(=O)c4cc(F)c(NC(=O)/C=C/CN[C@@H]5[C@@H]6COC[C@@H]65)c(F)c4)cc(c12)CCO3",
    "reported endpoint": "pIC50",
    "reported result": 7.99
  },
  {
    "molecule": "CC1(NC/C=C/C(=O)Nc2c(F)cc(C(=O)c3cc4c5c(cccn35)-c3c(cc(N5CCNC5=O)cc3C(F)(F)F)OCC4)cc2F)CC1",
    "reported endpoint": "pIC50",
    "reported result": 7.85
  }
]

Provide each entry's pIC50 from the list below.
1. Cc1nc2c3c(c(C(F)(F)F)cc2n1C)-c1cccn2c(C(=O)c4cc(F)c(NC(=O)/C=C/CNC5(C)CCOCC5)c(F)c4)cc(c12)CCN3C (single isomer, unassigned)
2. CC1Cc2cc(C(=O)c3cc(F)c(NC(=O)/C=C/CNC4(C)COC4)c(F)c3)n3cccc(c23)-c2c(C(F)(F)F)cc3c(ncn3C)c2O1 (centres unmarked)
3. COCc1nc2c3c(c(C(F)(F)F)cc2n1C)-c1cccn2c(C(=O)c4cc(F)c(NC(=O)/C=C/CN[C@H]5CCOC5)c(F)c4)nc(c12)CCN3C (single isomer, unassigned)
4. CO[C@H]1CC[C@H](NC/C=C/C(=O)Nc2c(F)cc(C(=O)c3cn4c5c(cccc35)-c3c(C)cc5c(nc(C)n5C)c3N(C)CC4)cc2F)CC1 (single isomer, unassigned)
5. Cc1cc2c(nc(C)n2C)c2c1-c1cccc3c(C(=O)c4cc(F)c(NC(=O)/C=C/CNC5CC6(COC6)C5)c(F)c4)cn(c13)CCN2C

8.60
7.08
7.55
8.16
7.30
